assay system: Cyclin-dependent kinase 9 (Homo sapiens)
Sequence (P50750 whole entry): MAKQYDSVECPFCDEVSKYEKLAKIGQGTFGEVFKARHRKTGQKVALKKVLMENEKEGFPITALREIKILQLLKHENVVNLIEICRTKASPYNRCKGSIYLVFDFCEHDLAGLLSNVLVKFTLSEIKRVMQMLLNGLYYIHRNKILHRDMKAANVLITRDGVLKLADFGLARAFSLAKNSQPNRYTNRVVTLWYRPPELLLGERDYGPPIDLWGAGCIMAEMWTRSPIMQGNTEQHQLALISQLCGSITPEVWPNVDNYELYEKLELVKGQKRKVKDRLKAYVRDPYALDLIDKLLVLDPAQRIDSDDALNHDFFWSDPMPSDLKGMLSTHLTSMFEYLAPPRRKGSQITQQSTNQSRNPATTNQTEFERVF
experiment summary: LANCE ULight TR-FRET Kinase Assay : CDK9 enzyme activities were measured using LANCE ULight TR-FRET kinase assay reagents (PerkinElmer, Waltham, Mass.). Compounds were diluted in 100% DMSO then diluted with 1:10 in serine/threonine kinase assay buffer containing 20 mM HEPES, 10 mM MgCl2, 100 mM Na3VO4, and 0.0075% Triton X-100. Equal volume of the compound dilutions was added to a final reaction mixture containing LANCE detection buffer (PerkinElmer CR97-100), 100 nM ULight MBP (PerkinElmer TRF0109M), 1000 μM ATP, and CDK9/Cyclin T1 (Carna Biosciences 04-110). The kinase reaction was carried out for 1 hour before addition of stopping buffer to a final of 20 mM EDTA and 0.5 nM of LANCE Ultra Europium anti-phospho-MBP antibody (PerkinElmer TRF0201M) in LANCE detection buffer. The reaction was incubated for 1 hour and the signal was read in Envision in TR-FRET mode (excitation at 320 nm and emission at 615/665 nm).
pIC50: −log10 of the molar value.
reported property: pIC50

Known results for compounds:
CNC(=O)N1CC=C(c2[nH]c3nccc4c3c2CN(C)c2ccc(F)cc2-4)CC1
7.52
CN(CCO)C(=O)CN1CC=C(c2[nH]c3ncc(F)c4c3c2CN(C)c2ccc(F)cc2-4)CC1
7.00

P. CN1Cc2c(C3=CCN(S(C)(=O)=O)CC3)[nH]c3ncc(F)c(c23)-c2cc(F)ccc21
Q. CN1Cc2c(C3=CCN(C(=O)OC(C)(C)C)CC3)[nH]c3nccc(c23)-c2cc(F)ccc21
Given the listed items, does P or Q have the lesser reported pIC50? Reply briefly: the label of your chosen item.
Q
(Q: 6.64, P: 7.42)
